- Measurement description: NCI Yeast Anticancer Drug Screen. Data for the mlh1 rad18 strain (AID 175)
- Experimental context: S. cerevisiae mlh1 rad18 strain growth inhibition; at 50.0 µM
About 79,000 compounds went through this panel and 15% of them were active in at least one assay; those are over-represented in the sample as a whole. Active and inactive are the calls of the source. Cut-off read from the data, not from the text of the source: active = growth inhibition above about 70%; inactive = the rest.
Bench note: report the call from Y (active), N (inactive)

Some solved entries appear below for comparison.
INSERT INTO results (compound, category) VALUES
  ('CCOc1ccccc1N=Nc1ccc2oc(=O)c(C(=O)Nc3cccc(C)c3)cc2c1', 'Y'),
  ('CC(=O)Nc1cccc(C(=O)O)c1', 'N'),
  ('O=C(Cc1nc2ccccc2s1)C(=O)Nc1ccc(Cl)cc1', 'N');

Could you check what this test reported for "CCN(CC)CCCC(=O)Nc1cc(OC)cc2cccnc12" ?
N

What classification did O=C(c1ccc(Cl)cc1)C1OC12C(=O)Nc1c(Cl)cc(Cl)cc12 (stereo unspecified) end up with in this test?
Y

Name the outcome recorded for COc1cccc(C2c3cc4c(cc3OC(NNc3ccccc3)C2C)OCO4)c1OC (stereo unspecified) in the assay.
N

Could you please tell me the result logged for "CCOC(=O)N1CCN(CCCCCCOc2ccc(C(C)(C)C)cc2)CC1" in this assay?
Y

Hi, sorry to bother you, what did the test record for "O=C1/C(=C\c2ccccc2)CCC/C1=C\O" ?
N

Test call for this compound, please: "NC(=S)Nc1ccccc1O"
N

Kindly provide the recorded test outcome for the following compound: "COc1ccccc1NC(=O)/C(=C/n1c(=S)sc2ccccc21)C(C)=O"
N

Which result was noted for this compound in the test: CC(C)C1COC(c2ccc3ccccc3c2-c2c(O[Si](C)(C)C(C)(C)C)ccc3ccccc23)=N1 (stereo unspecified)
Y

---

- Measurement description: NCI Yeast Anticancer Drug Screen. Data for the cln2 rad14 strain (AID 165)
- Experimental context: S. cerevisiae cln2 rad14 strain, at 5.0 µM (retest, dose inferred, filed as 0.5), hits give high values
This is part of a sample that, as a whole, favours compounds with a hit. Of some 79,000 tested, about 15% had one in any assay.
Label scheme for growth inhibition: lower than 20% is Condition not met, 20% and above is Condition met.

Before answering, review these 6 worked examples.
INSERT INTO results (compound, category) VALUES
  ('COc1ccc2c(c1)CCn1c(C)c(COC(=O)NC(C)C)c(COC(=O)NC(C)C)c1-2', 'Condition not met'),
  ('CN(C)C(=O)/N=c1\ss/c(=N\C(=S)N(C)C)n1-c1ccccc1', 'Condition not met'),
  ('O=[N+]([O-])c1c(Br)ncn1Cc1ccccc1', 'Condition met'),
  ('Cc1ccc(C)c(C2CCCCC2O)c1 (stereo unspecified)', 'Condition not met'),
  ('c1ccc2c(c1)ccc1c[n+]3c4ccccc4ccc3n12', 'Condition met'),
  ('CN1CCC(CCC(=O)OC(C)(C)C)(CN2c3ccccc3Sc3ccccc32)C1 (stereo unspecified)', 'Condition not met');

Given "CCCCCCCCCCCC(=O)C(=O)c1ccc(O)cc1O" , state whether its growth inhibition is at least 20%.
Condition met

Hi, just wondering whether "C/C(=N\NC(=S)Nc1ccc(N(C)C)cc1)c1ccccn1" shows growth inhibition of 20% or higher.
Condition not met

# bool: growth inhibition of "CCCCCc1[nH]nc(C(=O)OC)c1N=NN1CCOCC1" >= 20%
Condition met

Check this compound for growth inhibition at or above 20%: "[N-]=[N+]=Nc1c([N+](=O)[O-])c(=O)n(-c2ccccc2)c2ccccc12"
Condition met

Test whether the compound "NS(=O)(=O)c1ccc(-n2cccc2)cc1" records growth inhibition of 20% or higher.
Condition not met
